Readings of IC50 for the listed molecules
Molecular target: UBE2T/FANCLRING (ubiquitylation of GST-FANCLRING) (Homo sapiens)
Test: biochemical
Details: printed beside the structures in Figure S3; read-out: IC50 (Figure S3)
measurementKind: IC50 (µM)

1. NCCN1C(=O)CC[C@H]2CN(Cc3cccc(-c4ccco4)c3)CC[C@H]21	56
2. O=C(c1ccc2n[nH]nc2c1)N1CCC(COc2ccccc2)CC1	25.8
3. NC(=O)[C@@H]1CCCN1C(=O)c1cc(-n2cccc2)ccc1Cl	9.9
4. Cc1nnc(N(C)CC2CCN(CC(C)O)CC2)c(C#N)c1C (stereo not shown)	45.4
5. CCN1CCN(c2cc(C)nc3nc(CN4CCCCC4C)nn23)CC1 (stereo not shown)	14.8
6. Cc1cc(C(=O)O)cc(S(=O)(=O)Nc2ccccc2-n2cccn2)c1C	82.5
7. Cn1ncc(C#N)c1NC(=O)Cc1coc2cc3c(cc12)CCC3	73.2
8. Cc1nc2ccccc2n1CCNS(=O)(=O)c1ccc2c(c1)CC(=O)N2	35.3
9. COc1ccc(CNC(=O)c2ccc(-n3nccc3C)cc2)cc1C(=O)O	49.8
10. O=C(CCc1ccco1)NS(=O)(=O)c1cccc2ncccc12	2.1

----------
Test system: FANCD2 foci and γH2AX in U2OS cells
Assay: High-throughput high content indirect immunofluorescence (FANCD2 foci, γH2AX)
Type: cell-based
Conditions: sum of experiments 1-3, CU1 200 μM, CU2 500 μM, HU 2.5 mM 8 h, cisplatin 10 μM 8 h
Readings of H2AX positive nuclei, Totals for the listed compounds
measurementKind: H2AX positive nuclei, Totals

1) N.N.[Cl][Pt][Cl] [cisplatin, reference compound]	3093
2) NCCN1C(=O)CC[C@H]2CN(Cc3cccc(-c4ccco4)c3)CC[C@H]21	445
3) NC(=O)NO [HU, Hydroxyurea, reference compound]	1770
4) CCN1CCN(c2cc(C)nc3nc(CN4CCCCC4C)nn23)CC1 (stereo not shown)	438

----------
Target: UBE2T/FANCLRING (ubiquitylation of GST-FANCLRING) (Homo sapiens, UniProt Q9NW38)
Sequence (Q9NW38 275-375 limits assumed): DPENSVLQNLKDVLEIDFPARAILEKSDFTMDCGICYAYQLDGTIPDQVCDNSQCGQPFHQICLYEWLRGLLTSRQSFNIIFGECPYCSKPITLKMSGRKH
Test: biochemical
Details: read-out: Primary screen % Inhibition (20 M)
Text: To identify small-molecule inhibitors of the FA pathway, we developed a high-throughput screen (HTS) compatible assay based on the FA ubiquitylation cascade (see Figure 1a, as well as Figure S1 in the Supporting Information). […] The recombinant protein assay developed used homogeneous time-resolved fluorescence (HTRF) and contained Cy5-labeled ubiquitin, the E1 enzyme UBE1, the E2 enzyme UBE2T, and the RING domain (residues 275–375) of the E3 FANCL (FANCLRING). […]
Threshold rule: inhibition at 20 µM greater than or equal to 50% is met; below that, not met.

1) Cc1nc2ccccc2n1CCNS(=O)(=O)c1ccc2c(c1)CC(=O)N2	not met
2) Cc1nnc(N(C)CC2CCN(CC(C)O)CC2)c(C#N)c1C (stereo not drawn)	not met
3) Cc1cc(C(=O)O)cc(S(=O)(=O)Nc2ccccc2-n2cccn2)c1C	not met
4) CCN1CCN(c2cc(C)nc3nc(CN4CCCCC4C)nn23)CC1 (stereo not drawn)	met
5) Cn1ncc(C#N)c1NC(=O)Cc1coc2cc3c(cc12)CCC3	not met
6) O=C(CCc1ccco1)NS(=O)(=O)c1cccc2ncccc12	met
7) NCCN1C(=O)CC[C@H]2CN(Cc3cccc(-c4ccco4)c3)CC[C@H]21	not met
8) O=C(c1ccc2n[nH]nc2c1)N1CCC(COc2ccccc2)CC1	not met
9) COc1ccc(CNC(=O)c2ccc(-n3nccc3C)cc2)cc1C(=O)O	not met
